// reported pKi for each item listed
- EXPERIMENTAL SYSTEM: human plasmin (Homo sapiens, UniProt P00747)
- Sequence (P00747 581-810 limits assumed): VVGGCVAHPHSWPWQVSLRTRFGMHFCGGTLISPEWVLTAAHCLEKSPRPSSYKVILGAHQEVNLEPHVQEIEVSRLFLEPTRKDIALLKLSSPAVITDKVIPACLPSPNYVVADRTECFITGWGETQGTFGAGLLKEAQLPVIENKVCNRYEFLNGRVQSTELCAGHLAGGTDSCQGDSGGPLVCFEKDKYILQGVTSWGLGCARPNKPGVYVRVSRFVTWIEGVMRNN
- Sequence (P00747 97-580 partner limits assumed): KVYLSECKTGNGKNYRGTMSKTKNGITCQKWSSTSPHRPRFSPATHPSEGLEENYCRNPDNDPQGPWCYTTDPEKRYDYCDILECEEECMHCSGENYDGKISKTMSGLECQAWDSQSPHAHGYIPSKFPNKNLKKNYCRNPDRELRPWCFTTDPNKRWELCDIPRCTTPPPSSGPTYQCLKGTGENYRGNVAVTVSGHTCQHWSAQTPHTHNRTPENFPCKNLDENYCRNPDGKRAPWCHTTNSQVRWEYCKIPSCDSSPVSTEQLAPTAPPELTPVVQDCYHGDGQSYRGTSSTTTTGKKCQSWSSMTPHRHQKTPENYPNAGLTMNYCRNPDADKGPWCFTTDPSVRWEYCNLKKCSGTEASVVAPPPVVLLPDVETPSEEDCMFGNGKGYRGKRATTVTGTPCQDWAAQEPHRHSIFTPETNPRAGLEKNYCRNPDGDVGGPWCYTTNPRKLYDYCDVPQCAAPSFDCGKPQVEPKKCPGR
- ASSAY REMARKS: Inhibition of human plasmin, chromogenic substrate Tos-Gly-Pro-Lys-pNA, Ki according to Dixon
- Type: biochemical
- CONDITIONS: comparative inhibitor compositions, 0.1% inhibitor and 99.9% of glycerine 86%; 25° C., pH 8.0; Dixon; read-out: Ki for plasmin inhibition
Lab note: report pKi as minus log10 of the concentration in molar units, number only.

Bench note: what pKi did CC(NC(=O)C(CO)NS(=O)(=O)Cc1ccccc1)C(=O)NCc1ccc(C(=N)N)cc1 (stereo not drawn) show?
6.27

Bench note: what pKi did N=C(N)c1ccc(CNC(=O)CNC(=O)[C@@H](CO)NS(=O)(=O)Cc2ccccc2)cc1 show?
4.96

Bench note: what pKi did N=C(N)c1ccc(CNC(=O)C(CCCCN)NC(=O)C(CO)NS(=O)(=O)Cc2ccccc2)cc1 (stereo not drawn) [reference compound] show?
6.44

* * *

- EXPERIMENTAL SYSTEM: human uPA (Homo sapiens, UniProt P00749)
- ASSAY REMARKS: Inhibition of human uPA (urokinase), chromogenic substrate Bz-βAla-Gly-Arg-pNA, Ki according to Dixon
- Assay type: biochemical
- CONDITIONS: comparative inhibitor compositions, 0.1% inhibitor and 99.9% of glycerine 86%; 25° C., pH 8.0; Dixon; read-out: Ki for uPA inhibition
READOUT LABEL: Ki
Kindly report the value followed by its unit.

Bench note: what Ki did N=C(N)c1ccc(CNC(=O)C(CCCCN)NC(=O)C(CO)NS(=O)(=O)Cc2ccccc2)cc1 (stereo not shown) [reference compound] show?
24 nM

* * *

- EXPERIMENTAL SYSTEM: human uPA (Homo sapiens)
- ASSAY REMARKS: Inhibition of human uPA (urokinase), chromogenic substrate Bz-βAla-Gly-Arg-pNA, Ki according to Dixon
- Format: biochemical
READOUT LABEL: Ki (nM)
Field: numeric (nM). Do not append units.

Bench note: what Ki did N=C(N)c1ccc(CNC(=O)C(CCc2ccccc2)NC(=O)C(CO)NS(=O)(=O)Cc2ccccc2)cc1 (stereo not shown) show?
28
